Test system: K. pneumoniae ATCCBAA-1705
Experiment: MIC, CLSI broth microdilution, Test Example 1
Assay type: cell-based
Settings: Klebsiella pneumoniae, ATCCBAA1705; KPC-2 carbapenemase producing strain; cation-adjusted Mueller Hinton broth containing human apo-transferrin; 5×10^5 cfu/mL; read-out: Minimum Inhibitory Concentration (MIC) K. pneumoniae ATCCBAA-1705
# MIC annotations

Previously resolved entries follow.
compound="C[N+]1(CC2=C(c3nnn[n-]3)N3C(=O)[C@@H](NC(=O)/C(=N\\O[C@@H](CC(=O)[O-])C(=O)[O-])c4csc(N)n4)[C@H]3SC2)[C@@H]2CC[C@H]1C[C@@H](NC(=O)c1ccc(O)c(O)c1Cl)C2.[Na+].[Na+] (stereo partly shown) [Compound I-14]" result="≤ 0.031 µg/mL"
compound="CC(C)(O/N=C(\\C(=O)N[C@@H]1C(=O)N2C(c3nnn[n-]3)=C(C[N+]3(CCNC(=O)c4ccc(O)c(O)c4Cl)CCCC3)C[S+]([O-])[C@H]12)c1csc(N)n1)C(=O)[O-].[Na+] (stereo partly shown) [Compound I-7]" result="0.063 µg/mL"
compound="CC(C)(O/N=C(\\C(=O)N[C@@H]1C(=O)N2C(c3nnn[n-]3)=C(C[N+]3(C)[C@@H]4CC[C@H]3C[C@@H](NC(=O)c3cc(O)c(O)c(F)c3)C4)CS[C@H]12)c1csc(N)n1)C(=O)[O-].[Na+] (stereo partly shown) [Compound I-6]" result="≤ 0.031 µg/mL"

Q: Give its MIC value. Item: CC(C)(O/N=C(\C(=O)N[C@@H]1C(=O)N2C(c3nnn[n-]3)=C(Cn3cc[n+](CCNC(=O)c4ccc(O)c(O)c4Cl)c3)CS[C@H]12)c1csc(N)n1)C(=O)[O-].[Na+] [Compound I-74]
Ans: ≤ 0.031 µg/mL

---

Test system: P. aeruginosa SR27060
Experiment: MIC, CLSI broth microdilution, Test Example 1
Format: cell-based
Conditions: Pseudomonas aeruginosa, SR27060; IMP-1 MBL producing strain (carbapenem resistance strain); cation-adjusted Mueller Hinton broth containing human apo-transferrin; 5×10^5 cfu/mL; read-out: Minimum Inhibitory Concentration (MIC) P. aeruginosa SR27060
# MIC annotations
Number first, unit second: that is the form wanted.

Previously resolved entries follow.
compound=Nc1nc(/C(=N/O[C@@H](CC(=O)[O-])C(=O)[O-])C(=O)N[C@@H]2C(=O)N3C(c4nnn[n-]4)=C(C[N+]4(CCNC(=O)c5ccc(O)c(O)c5Cl)CCCC4)CS[C@H]23)cs1.[Na+].[Na+] result="1 µg/mL"
compound=CC(C)(O/N=C(\C(=O)N[C@@H]1C(=O)N2C(c3nnn[n-]3)=C(C[N+]34CCC(CNC(=O)c5cc(=O)c(O)cn5O)(CC3)CC4)CS[C@H]12)c1csc(N)n1)C(=O)[O-].[Na+] result="2 µg/mL"

Q: Give its MIC value. Item: `CC(C)(O/N=C(\C(=O)N[C@@H]1C(=O)N2C(c3nnn[n-]3)=C(C[N+]34CCC(CNC(=O)c5ccc(O)c(O)c5Cl)(CC3)CC4)CS[C@H]12)c1csc(N)n1)C(=O)[O-].[Na+]`
Ans: 2 µg/mL

Q: Please answer likewise for CC(C)(O/N=C(\C(=O)N[C@@H]1C(=O)N2C(c3nnn[n-]3)=C(C[N+]3(C)[C@@H]4CC[C@H]3C[C@@H](NC(=O)c3ccc(O)c(O)c3Cl)C4)CS[C@H]12)c1nc(N)sc1Cl)C(=O)[O-].[Na+] (stereo partly drawn)
Ans: 0.25 µg/mL

---

Test system: K. pneumoniae ATCC700603
Assay: MIC, CLSI broth microdilution, Test Example 2
Format: cell-based
Settings: Klebsiella pneumoniae, ATCC700603; SHV18 ESBL producing strain; cation-adjusted Iso-Sensitest broth containing human Apo-transferrin; 5×10^5 cfu/mL; read-out: Minimum Inhibitory Concentration (MIC) K. pneumoniae ATCC 700603
# MIC annotations
Give the value in µg/mL but do not write µg/mL after it.

Q: Please provide the recorded MIC for CC(C)(O/N=C(\C(=O)N[C@@H]1C(=O)N2C(c3nnn[n-]3)=C(C[N+]3(CCNC(=O)c4cc(O)c(O)c(Cl)c4)CCCC3)CS[C@H]12)c1nc(N)sc1Cl)C(=O)[O-].[Na+] [Compound I-30] , tested on K. pneumoniae ATCC700603.
Ans: 0.125

Q: Please answer likewise for CC(C)(O/N=C(\C(=O)N[C@@H]1C(=O)N2C(c3nnn[nH]3)=C(C[N+]3(CCNC(=O)c4ccc(O)c(O)c4F)CCCC3)CS[C@H]12)c1nsc(N)n1)C(=O)[O-] [Compound I-107]
Ans: 0.125

Q: Please answer likewise for CC(C)(O/N=C(\C(=O)N[C@@H]1C(=O)N2C(c3nnn[nH]3)=C(C[N+]34CCCC3CN(C(=O)c3cc(O)c(O)c(Cl)c3)CC4)CS[C@H]12)c1nsc(N)n1)C(=O)[O-] (stereo partly drawn) [Compound I-122]
Ans: 0.125

Q: Please answer likewise for Nc1nc(/C(=N/OC(C(=O)[O-])C(=O)[O-])C(=O)N[C@@H]2C(=O)N3C(C(=O)[O-])=C(C[N+]45CCC(CNC(=O)c6ccc(O)c(O)c6Cl)(CC4)CC5)CS[C@H]23)cs1.[Na+].[Na+] (stereo partly drawn) [Comparative Compound 2, reference compound]
Ans: 0.5

Q: Please answer likewise for CC(C)(O/N=C(\C(=O)N[C@@H]1C(=O)N2C(c3nnn[n-]3)=C(C[N+]3(CCNC(=O)c4ccc(O)c(O)c4Cl)CCCC3)CS[C@H]12)c1csc(N)n1)C(=O)[O-].[Na+] [Compound I-82]
Ans: 0.125

Q: Please answer likewise for CC(C)(O/N=C(\C(=O)N[C@@H]1C(=O)N2C(c3nnn[n-]3)=C(C[N@+]34CCC[C@H]3CN(C(=O)c3cc(O)c(O)c(Cl)c3)CC4)CS[C@H]12)c1nc(N)sc1Cl)C(=O)[O-].[Na+] [Compound I-29]
Ans: 0.125

---

Tested on: P. aeruginosa SR27060
Assay: MIC, CLSI broth microdilution, Test Example 1
Type: cell-based
Details: Pseudomonas aeruginosa, SR27060; IMP-1 MBL producing strain (carbapenem resistance strain); cation-adjusted Mueller Hinton broth containing human apo-transferrin; 5×10^5 cfu/mL; read-out: Minimum Inhibitory Concentration (MIC) P. aeruginosa SR27060
Method: Measurement of Minimum Inhibitory Concentration (MIC: μg/mL) was conducted according to CLSI (Clinical and Laboratory Standards Institute) method, and the amount of bacteria for inoculation was 5×10^5 cfu/mL, and cation-adjusted Mueller Hinton broth containing human apo-transferrin was used as a test medium, and the experiment was conducted using broth microdilution method. The bacteria used are listed below.
Metric: MIC (µg/mL)
Give the value in µg/mL but do not write µg/mL after it.

Previously resolved entries follow.
molecule="CC(C)(O/N=C(\\C(=O)N[C@@H]1C(=O)N2C(c3nnn[n-]3)=C(C[N+]34CCC[C@H]3CN(C(=O)c3cc(O)c(O)c(Cl)c3)CC4)CS[C@H]12)c1csc(N)n1)C(=O)[O-].[Na+] (stereo partly shown)" metric=MIC recorded_number=0.5
molecule=CC(C)(O/N=C(\C(=O)N[C@@H]1C(=O)N2C(c3nnn[n-]3)=C(C[N+]3(CCNC(=O)c4ccc(O)c(O)c4Cl)CCCC3)CS[C@H]12)c1csc(N)n1)C(=O)[O-].[Na+] metric=MIC recorded_number=0.5
molecule=CC(C)(O/N=C(\C(=O)N[C@@H]1C(=O)N2C(c3nnn[n-]3)=C(C[N+]34CCC(CNC(=O)c5cc(=O)c(O)c[nH]5)(CC3)CC4)CS[C@H]12)c1csc(N)n1)C(=O)[O-].[Na+] metric=MIC recorded_number=4

Let us examine a further case.
Q: Give its MIC value. Item: CC(C)(O/N=C(\C(=O)N[C@@H]1C(=O)N2C(C(=O)[O-])=C(C[N+]34CCC(CNC(=O)c5ccc(O)c(O)c5Cl)(CC3)CC4)CS[C@H]12)c1csc(N)n1)C(=O)[O-].[Na+] [Comparative Compound 1, reference compound]
Ans: 4

---

Tested on: P. aeruginosa SR27060
Test: MIC, CLSI broth microdilution, Test Example 1
Format: cell-based
Conditions: Pseudomonas aeruginosa, SR27060; IMP-1 MBL producing strain (carbapenem resistance strain); cation-adjusted Mueller Hinton broth containing human apo-transferrin; 5×10^5 cfu/mL; read-out: Minimum Inhibitory Concentration (MIC) P. aeruginosa SR27060
Metric: MIC (µg/mL)
Give the value in µg/mL but do not write µg/mL after it.

Previously resolved entries follow.
molecule="CC(C)(O/N=C(\\C(=O)N[C@@H]1C(=O)N2C(c3nnn[n-]3)=C(C[N+]3(CCNC(=O)c4ccc(O)c(O)c4Cl)CCCC3)CS[C@H]12)c1nc(N)sc1Cl)C(=O)[O-].[Na+] [Compound I-88]" value_units=µg/mL recorded_number=0.5
molecule="C[N+]1(CC2=C(c3nnn[n-]3)N3C(=O)[C@@H](NC(=O)/C(=N\\O[C@@H](CC(=O)[O-])C(=O)[O-])c4csc(N)n4)[C@H]3SC2)[C@@H]2CC[C@H]1C[C@@H](NC(=O)c1ccc(O)c(O)c1Cl)C2.[Na+].[Na+] (some centres unmarked) [Compound I-14]" value_units=µg/mL recorded_number=1
molecule="CC(C)(O/N=C(\\C(=O)N[C@@H]1C(=O)N2C(c3nnn[n-]3)=C(Cn3cc(NC(=O)c4ccc(O)c(O)c4Cl)[n+]4c3CCCC4)CS[C@H]12)c1csc(N)n1)C(=O)[O-].[Na+] [Compound I-16]" value_units=µg/mL recorded_number=0.25
molecule="CC(C)(O/N=C(\\C(=O)N[C@@H]1C(=O)N2C(c3nnn[n-]3)=C(C[N+]34CCC[C@H]3CN(C(=O)c3cc(O)c(O)c(F)c3)CC4)CS[C@H]12)c1csc(N)n1)C(=O)[O-].[Na+] (some centres unmarked) [Compound I-5]" value_units=µg/mL recorded_number=0.5

Let us examine a further case.
Q: Please provide the recorded MIC for CC(C)(O/N=C(\C(=O)N[C@@H]1C(=O)N2C(c3nnn[nH]3)=C(C[n+]3cccc4c(NC(=O)c5ccc(O)c(O)c5Cl)cccc43)CS[C@H]12)c1csc(N)n1)C(=O)[O-] [Compound I-76] , tested on P. aeruginosa SR27060.
Ans: 0.5
